The following molecules are shown together with reported Cyno Primary Hepatocyte Editing % 500 values.
System: PCSK9 gene
Test: PCSK9 gRNA/SpCas9 editing in primary cynomolgus hepatocytes (Tables 2, 22)
Type: cell-based, cynomolgus monkey
Details: 500 ng/RNA/mL; SpCas9 mRNA MS002 1:1 by weight
In the oligonucleotide strings, read from the 5' end, every base follows the letter of its sugar. An asterisk marks phosphorothioate; unmarked linkages are phosphodiester. Other units and linkages are bracketed, terminal groups are in braces. A string of capitals states the bases alone. m = 2'-O-methyl; r = 2'-OH (RNA)

molecule	Cyno Primary Hepatocyte Editing % 500 (%)
GA185: PCSK9 gRNA; protospacer AGACATGCAGGATCTTGGTG (SEQ ID NO: 179) (nucleic acid) guide: mA*mG*mA*rCrArUrGrCrArGrGrArUrCrUrUrGrGrUrGrGrUrUrUrUrArGrArGrCrUrArGrArArArUrArGrCrArArGrUrUrArArArArUrArArGrGrCrUrArGrUrCrCrGrUrUrArUrCrArArCrUrUrGrArArArArArGrUrGrGrCrArCrCrGrArGrUrCrGrGrUrGrCrU*mU*mU*mU	7.75
GA221: PCSK9 gRNA; protospacer TCATGGCACCCACCTGGCAG (SEQ ID NO: 215) (nucleic acid, sugars from the 5' end m3 r94 m3, linkages s3 o93 s3 (s phosphorothioate, o phosphodiester), T or U not given here) guide: UCAUGGCACCCACCUGGCAGGUUUUAGAGCUAGAAAUAGCAAGUUAAAAUAAGGCUAGUCCGUUAUCAACUUGAAAAAGUGGCACCGAGUCGGUGCUUUU	20.27
GA169: PCSK9 gRNA; protospacer CGTGCGCAGGAGGACGAGGA (SEQ ID NO: 163) (nucleic acid, sugars from the 5' end m3 r94 m3, linkages s3 o93 s3 (s phosphorothioate, o phosphodiester), T or U not given here) guide: CGUGCGCAGGAGGACGAGGAGUUUUAGAGCUAGAAAUAGCAAGUUAAAAUAAGGCUAGUCCGUUAUCAACUUGAAAAAGUGGCACCGAGUCGGUGCUUUU	18.28

Recorded values, source patent US20250152746A1.
